Hey, just so you know, these numbers are from the OPERA property sets (Mansouri et al. 2018).

Reported values of logP for individual entries

>  <MOLECULE>
Cc1cc(C)cc(NS(=O)(=O)c2ccc(N)cc2)c1

>  <logP>
2.52

$$$$
>  <MOLECULE>
CCN1CC(C(O)C(CC2CCCCC2)NC(=O)C(Cc2cnc[nH]2)NC(=O)C(CC(=O)N(C)CCOCOC)Cc2ccccc2)OC1=O (configuration not stated)

>  <logP>
2.49

$$$$
>  <MOLECULE>
CCCCCCCCCCCCCCCC(=O)O

>  <logP>
7.17

$$$$
>  <MOLECULE>
COc1cc2nc(N3CCN(C(=O)C(C)OC)CC3)nc(N)c2cc1OC (configuration not stated)

>  <logP>
1.14

$$$$
>  <MOLECULE>
Cn1c([N+](=O)[O-])cnc1C=Cc1ccncn1

>  <logP>
0.85

$$$$
>  <MOLECULE>
CCCCOCC(O)Cn1ccnc1[N+](=O)[O-] (configuration not stated)

>  <logP>
1.11

$$$$
>  <MOLECULE>
CCOC1OC(CO)C(O)C(O)C1O (configuration not stated)

>  <logP>
-2.28

$$$$

----------
logP less than 3 is YES; logP greater than or equal to 3 is NO.

>  <COMPOUND>
CCCc1ccc(N)cc1

>  <CATEGORY_LABEL>
YES

$$$$
>  <COMPOUND>
O=C(CN1CCOCC1)NCc1ccccc1

>  <CATEGORY_LABEL>
YES

$$$$
>  <COMPOUND>
Cc1cnc2n(c1=O)CCCC2C (configuration not stated)

>  <CATEGORY_LABEL>
YES

$$$$
>  <COMPOUND>
Cc1cc(=O)n2c(n1)CCCC2C (configuration not stated)

>  <CATEGORY_LABEL>
YES

$$$$
>  <COMPOUND>
CCNC(=O)c1cc(Br)cc(C)c1O

>  <CATEGORY_LABEL>
NO

$$$$
>  <COMPOUND>
O=c1ccn([C@H]2CC[C@@H](CO)O2)c(=O)[nH]1

>  <CATEGORY_LABEL>
YES

$$$$
>  <COMPOUND>
C=C(C)C(=O)OCC(C)(C)COC(=O)C(=C)C

>  <CATEGORY_LABEL>
YES

$$$$
>  <COMPOUND>
CC1CCC2C(C)C(OC(=O)Oc3ccccc3)OC3OC4(C)CCC1C32OO4 (configuration not stated)

>  <CATEGORY_LABEL>
NO

$$$$
>  <COMPOUND>
CCOC(=O)C(CC(C)C)NC(=O)CNC(=O)CNC(=O)CCCCSc1ncnc2nc[nH]c12 (configuration not stated)

>  <CATEGORY_LABEL>
YES

$$$$
>  <COMPOUND>
Cc1cccc(C)c1NC(=O)CCN

>  <CATEGORY_LABEL>
YES

$$$$
>  <COMPOUND>
N[C@@H](Cc1cnccn1)C(=O)O

>  <CATEGORY_LABEL>
YES

$$$$
>  <COMPOUND>
c1ccc2cc3cc4ccccc4cc3cc2c1

>  <CATEGORY_LABEL>
NO

$$$$
>  <COMPOUND>
O=C(O)CCn1ccc2ccccc21

>  <CATEGORY_LABEL>
YES

$$$$
>  <COMPOUND>
Cc1cnc2n(c1=O)CCCC2

>  <CATEGORY_LABEL>
YES

$$$$
>  <COMPOUND>
CCNC(=O)NS(=O)(=O)c1ccc(Cl)cc1

>  <CATEGORY_LABEL>
YES

$$$$
>  <COMPOUND>
COc1ccc(C(O)(Cn2ccnc2)c2ccc(-c3ccncc3)cc2)cc1 (configuration not stated)

>  <CATEGORY_LABEL>
NO

$$$$
>  <COMPOUND>
COC1CC2(C)C(O)C(F)CC2C2CCc3cc(O)ccc3C12 (configuration not stated)

>  <CATEGORY_LABEL>
YES

$$$$
>  <COMPOUND>
Clc1ccc(Br)cc1NC1=NCCN1

>  <CATEGORY_LABEL>
YES

$$$$
>  <COMPOUND>
C=CCC(NC(=O)C(Cc1ccccc1)NS(=O)(=O)N1CCOCC1)C(=O)NC(COC(F)(F)C(=O)NCCN1CCOCC1)CC1CCCCC1 (configuration not stated)

>  <CATEGORY_LABEL>
NO

$$$$
>  <COMPOUND>
COC1CC(OC2CCC3(C)C(CCC4C3CCC3(C)C(C5=CC(=O)OC5)C(O)CC43O)C2)OC(C)C1O (configuration not stated)

>  <CATEGORY_LABEL>
YES

$$$$
>  <COMPOUND>
O=C(O)c1ccc(O)c(Cl)c1

>  <CATEGORY_LABEL>
YES

$$$$
>  <COMPOUND>
O=C(O)C=COc1ccccc1Cl

>  <CATEGORY_LABEL>
YES

$$$$
>  <COMPOUND>
O=C(COc1ccc(OCCNCC(O)COc2ccccc2)cc1)NCc1ccccc1 (configuration not stated)

>  <CATEGORY_LABEL>
NO

$$$$
>  <COMPOUND>
Cc1cc2occc2c2oc(=O)ccc12

>  <CATEGORY_LABEL>
YES

$$$$
>  <COMPOUND>
O=C1CC(Oc2ccc(C(=O)CCc3ccccc3)cc2)N1 (configuration not stated)

>  <CATEGORY_LABEL>
YES

$$$$
